tested on: OVCAR-5 ovarian; assay: NCI tumour cell line growth inhibition, 48 h
assayReadout: TGI

compound	targetOrTestSystem	recordedValue
O=C1c2cccc([N+](=O)[O-])c2C(=O)N1c1ncn[nH]1	OVCAR-5 ovarian	> 100 µM
CC(C)(C)OC(=O)CN1C(=O)CC1CC(=O)c1ccccc1 (stereo not given)	OVCAR-5 ovarian	36.8 µM
Cc1cc2c(cc1C(=O)CCC(=O)O)CC1(C2)Cc2cc(C)c(C(=O)CCC(=O)O)cc2C1	OVCAR-5 ovarian	> 100 µM
O=c1cc(-c2ccccc2)oc2cc(OC/C(=N/O)c3ccccc3)ccc12	OVCAR-5 ovarian	> 50 µM

State the recorded TGI for every item in the following list.
1. O=C(O)c1nn(-c2ccccc2-c2n[nH]c(=O)[nH]c2=O)c(=O)[nH]c1=O
2. Cc1ccc(NC(=O)CC(=O)n2nc(C)c(N=Nc3ccccc3C(=O)O)c2C)cc1
3. COc1cc(Nc2nc3ccccc3nc2-c2cccs2)cc(OC)c1OC
4. Nc1c(-c2ccc(Cl)cc2)[n+]([O-])c2ccccc2[n+]1[O-]

> 100 µM
> 100 µM
> 100 µM
> 100 µM

Provide TGI values for the following items, in order.
1. CCOC(=O)/C(=C\c1ccccc1)C(=O)O
2. Cc1ccc(S(=O)(=O)c2ccsc2NC(=O)C(F)(F)F)cc1

["> 100 µM", "> 100 µM"]

---

test system: SNB-19 CNS; test: NCI tumour cell line growth inhibition, 48 h
assayReadout: TGI

Before answering, review these 8 worked examples.
compound	recordedValue
C=C(C[C@](O)(C(=O)/C=C/c1ccc(Cl)cc1)C(=O)OC)c1ccccc1	12.8 µM
CC1(C)C2CCC(CN)(C2)C1N (configuration not stated)	> 100 µM
CC(=O)Oc1cc(Cl)c(C)c2c1[C@H]1CC[C@]3(C)[C@@H](OC(C)=O)CC[C@H]3[C@@H]1CC2	> 100 µM
O=C1c2cccc([N+](=O)[O-])c2C(=O)N1c1ncn[nH]1	> 100 µM
Ic1ccc2c(c1)N(c1ccccc1)c1cc(N=c3ccc4nc5ccc(I)cc5n(-c5ccccc5)c-4c3)ccc1N2	> 100 µM
Cc1nc(-c2cc3c(ccc4ccccc43)oc2=O)cs1	> 100 µM
NCCCCC(NC(=O)C(N)Cc1ccc(O)cn1)C(=O)O (configuration not stated)	> 100 µM
CS(=O)(=O)CCNCc1ccc(-c2ccc3ncnc(Nc4ccc(OCc5ccccc5)cc4)c3c2)o1	> 25 µM

I need TGI for every entry listed below, if you could help.
1. O=c1[nH]c(=O)n(CCOc2ccccc2)cc1Nc1ccccc1
2. CCOC(=S)SSSC(=S)OCC
3. CC(C)(C)C(=O)OCOP(=O)(OCOC(=O)C(C)(C)C)OCC1OC(n2ccc(=O)[nH]c2=O)C(N=[N+]=[N-])C1O (configuration not stated)
4. C[N+]1=C(/C=C/c2ccc(O)c3ncccc23)C(C)(C)c2ccccc21

1: > 100 µM; 2: > 100 µM; 3: 25.7 µM; 4: 14.4 µM

// for each compound in input: emit TGI
1. CCCC(=O)OCC1OC(n2cnc3c(=S)nc[nH]c32)C(OC(=O)CCC)C1OC(=O)CCC (configuration not stated)
2. COc1cc(Nc2nc3ccccc3nc2-c2cccs2)cc(OC)c1OC
3. COc1ccc(-c2onc(N)c2-c2cc(OC)c3c(c2)OCO3)cc1

1: > 100 µM; 2: > 100 µM; 3: > 100 µM

// input: 7 compounds below; output: TGI for each
1. c1ccc(-c2cn3c(nc4ccccc43)c(-c3ccccc3)n2)cc1
2. Cc1cccc(C(C)C)c1NC(=O)/C(Cc1c([N+](=O)[O-])cccc1[N+](=O)[O-])=N/NC(=O)CC#N
3. Nc1nc(Cl)c(CO)c(NCC2(CO)CC(CCc3ccccc3)C2)n1 (configuration not stated)
4. O=C1c2[nH]c3ccc(Br)cc3c2CCN1Cc1ccc(Cl)cc1
5. CCOC(=O)CCCNC(=O)CCCCC(=O)N(C)C
6. NC(=O)COC(=O)c1c(Cl)nc2sccn12
7. CCCCCCCC(=O)OCC/C=C/C1OC1C1OC(=O)/C=C\C=C\c2nc(oc2C)/C=C(/C)CCC2OC2C1OC(=O)NC(C)=O (configuration not stated)

["81.7 µM", "> 100 µM", "> 100 µM", "32.7 µM", "> 100 µM", "> 100 µM", "1.16 µM"]

// batch mode: one TGI value per listed entry
1. NC12CC3CC(C1)CC(C(=O)O)(C3)C2
2. Cc1ccc([N+](=O)[O-])cc1S(=O)(=O)Nc1ccc(C2=NN(c3ccc([N+](=O)[O-])cc3[N+](=O)[O-])C(c3cccs3)C2)cc1 (configuration not stated)
3. O=C(NC12CC3CC(CC(F)(C3)C1)C2)c1ccccc1
4. NC(=S)N1N=C2c3ccccc3CC[C@@H]2[C@@H]1c1ccccc1

["> 100 µM", "> 100 µM", "> 100 µM", "> 100 µM"]

Value sought for every listed compound: TGI.
1. O=C1c2ccccc2C(=O)N1CCc1ncc[nH]1
2. CCCCCCCCCCCCN(CC(O)C(O)C(OC1OC(CO)C(O)C(O)C1O)C(O)CO)C(=O)CCCCCCCCCCC (configuration not stated)
3. O=C(Nc1ccncc1)C(=O)c1cn(S(=O)(=O)c2cccc(F)c2)c2ccccc12
4. COc1ccccc1N(CN1C(=O)CCC1C(=O)O)C(C)=O (configuration not stated)

["> 100 µM", "35.4 µM", "> 100 µM", "> 100 µM"]

Go through the items and report each one's TGI.
1. OCCCNc1nc(=S)[nH]c2[nH]ncc12
2. CN1CCN(c2ccc3[nH]c(-c4cc(O)c5c(nc(CO)n5C)c4O)nc3n2)CC1
3. Cn1c2ccccc2c2ccc3c(c21)C(=O)c1ccccc1C3=O
4. COc1ccc(-c2nc(-c3nc4ccc(Cl)cc4[nH]3)c3ccccn23)cc1
5. CCCCCCCCn1ccc2cc(NC(=O)Cn3cc(CN4CCCC4)nn3)ccc21
6. Nc1cccc(S(=O)(=O)NCC(=O)O)c1
7. N#CSC1CCCCNC1=O (configuration not stated)
8. COc1ccc2c(c1)C(=O)c1c-2n(CCCn2ccnc2)c(=O)c2cc([N+](=O)[O-])ccc12

> 100 µM
> 100 µM
> 100 µM
20.7 µM
3.34 µM
> 100 µM
30.2 µM
> 100 µM

Quick batch: TGI for everything below.
1. CC(=O)c1sc2c(c1OC(=O)c1ccco1)c(=O)n(-c1ccccc1)c(=S)n2-c1ccccc1
2. CCCC/C=C/C/C=C/CCCCCCCCC(=O)OCC1CCCN2CCCCC12 (configuration not stated)
3. CCOCC(=O)N[C@H]1CCc2cc(OC)c(OC)c(OC)c2-c2ccc(OC)c(=O)cc21
4. CC(CCC(=O)O)(c1ccc(O)cc1)c1ccc(O)cc1

88.2 µM
> 100 µM
> 100 µM
> 100 µM

---

system: SK-OV-3 ovarian; test: NCI tumour cell line growth inhibition, 48 h
assayReadout: TGI

molecule	targetOrTestSystem	TGI
c1ccc2c(c1)CC1=C(O2)c2ccccc2OC1	SK-OV-3 ovarian	> 100 µM
OC1(c2ccccc2)C2CCN(CC2)C1CN1CCOCC1 (stereo not given)	SK-OV-3 ovarian	> 100 µM
COc1cc2ncnc(Nc3cccc(Cl)c3)c2cc1OC	SK-OV-3 ovarian	28.9 µM
O=C(CCN(C(=O)O)S(=O)(=O)c1ccc(NC(=O)c2ccccc2)cc1)NC1CCCCC1	SK-OV-3 ovarian	> 100 µM
COc1ccc(N2C(=O)/C(=C/c3ccc(N(CCC#N)CCC#N)cc3C)N=C2c2cc([N+](=O)[O-])ccc2Cl)cc1	SK-OV-3 ovarian	> 63.1 µM

I need TGI for every entry listed below, if you could help.
1. NC1=NC(c2ccccc2)CC(c2cc(Cl)ccc2O)=N1 (stereo not given)
2. CCC[CH2][Sn]1([CH2]CCC)[O]C(=O)CN=Cc2c(ccc3ccccc23)[O]1

["33 µM", "2.31 µM"]

---

Give TGI for every item shown.
tested on: DU-145 prostate; assay: NCI tumour cell line growth inhibition, 48 h

// known answers, use as guide
molecule	targetOrTestSystem	recordedValue
c1nc(N2CC2)c2cnn(C3CCCCO3)c2n1 (stereo not drawn)	DU-145 prostate	> 100 µM
NC(=O)NS(=O)(=O)c1ccc(N2N=C(C(F)(F)F)CC2c2cc(C(F)(F)F)cc(C(F)(F)F)c2)cc1 (stereo not drawn)	DU-145 prostate	15.1 µM
CC1CN1C(=O)NCCCCCCNC(=O)N1CC1C (stereo not drawn)	DU-145 prostate	> 100 µM
CN1CCN(c2ccc3[nH]c(-c4cc(O)c5c(nc(CO)n5C)c4O)nc3n2)CC1	DU-145 prostate	> 100 µM
CCC(C)(C)C1CCC2c3c([nH]c4ccccc34)C3C(=O)N(c4ccc(OC)cc4)C(=O)C3C2C1 (stereo not drawn)	DU-145 prostate	28.9 µM

Each molecule below has a recorded value; state its TGI.
1. COc1ccc(N2C(=O)/C(=C/c3ccc(N(CCC#N)CCC#N)cc3C)N=C2c2cc([N+](=O)[O-])ccc2Cl)cc1
2. CCCCC(=O)c1ccc2ccccc2c1O
3. O=C(O)CCNC1CCCCC1
4. COc1ccc(-c2nc(-c3nc4ccc(Cl)cc4[nH]3)c3ccccn23)cc1
5. CCOC(=O)CCCNC(=O)CCCCC(=O)N(C)C
6. COc1ccc(/C=C2\CCC(C)C3C2=NN(c2ccccc2)C3c2ccc(OC)c(OC)c2)cc1OC (stereo not drawn)
7. Clc1ccccc1-c1nc2ccc(C34CC5CC(CC(C5)C3)C4)cc2[nH]1

1: 34.8 µM; 2: > 100 µM; 3: > 100 µM; 4: 11.1 µM; 5: > 100 µM; 6: 12.7 µM; 7: > 100 µM

# batch size: 8; output TGI per entry
1. Nc1nc(I)nc2c1ncn2C1OC(COS(N)(=O)=O)C(O)C1O (stereo not drawn)
2. O=c1cc(-c2ccccc2)oc2cc(OC/C(=N/O)c3ccccc3)ccc12
3. O=C(Nc1ccncc1)C(=O)c1cn(S(=O)(=O)c2cccc(F)c2)c2ccccc12
4. C/C(Cl)=N/OC(=O)Nc1ccc(S(N)(=O)=O)c(C)c1
5. CC[C@@]1(c2ccccc2)C2=C(CC(C)(C)CC2=O)Nc2[nH]ncc21
6. O=C1c2cccc([N+](=O)[O-])c2C(=O)N1c1ncn[nH]1
7. COC1(C)CP(=O)(OC(C)C)CC(C)=C1Cl (stereo not drawn)
8. COc1cc(/C=C2/SC(c3ccccc3)N(c3ccccc3Cl)C2=O)cc(OC)c1OC (stereo not drawn)

1. < 0.0193 µM
2. > 50 µM
3. > 100 µM
4. 30.5 µM
5. > 100 µM
6. > 100 µM
7. 82.7 µM
8. > 100 µM

Take each entry in turn and give its TGI.
1. Nc1nc2c(nnn2C2CC(O)C(CO)O2)c(=O)[nH]1 (stereo not drawn)
2. O=C1CCC(N2C(=O)c3ccccc3C2=O)C(=O)N1CO (stereo not drawn)

["> 100 µM", "79.6 µM"]

Field: TGI. Fill in for each record below.
1. O=c1[nH]c(=O)n(CCOc2ccccc2)cc1Nc1ccccc1
2. Cc1ccc(-c2nc3nc(-c4ccccc4)nc(N4CCCNCC4)c3o2)cc1
3. O=C(O)COCC(=O)N(CCOCCN(Cc1ccccc1)C(=O)COCC(=O)O)Cc1ccccc1
4. Nc1nccc(-c2c(-c3ccc(F)cc3)ncn2C2CCC(O)CC2)n1 (stereo not drawn)
5. O=C(O)/C=C(\c1nc2ccc([N+](=O)[O-])cc2[nH]1)c1cc(Cl)ccc1O
6. C[N+](C)(C)CCCSc1nc2ccccc2[nH]1

["> 100 µM", "3.3 µM", "> 100 µM", "> 25 µM", "> 100 µM", "> 100 µM"]

Take each entry in turn and give its TGI.
1. Cc1cc2c(cc1C(=O)CCC(=O)O)CC1(C2)Cc2cc(C)c(C(=O)CCC(=O)O)cc2C1
2. O=S(=O)(SC1=NCCN1)c1ccc2ccccc2c1
3. C#CCNC(=O)c1cccc2c1cc(C)n2-c1nc2c(c(NCc3ccccc3)n1)CCCC2
4. CCOCC(=O)N[C@H]1CCc2cc(OC)c(OC)c(OC)c2-c2ccc(OC)c(=O)cc21
5. c1ccc(-c2cn3c(nc4ccccc43)c(-c3ccccc3)n2)cc1
6. COc1cc(/C=N\N(C)C)cc(/C=N/N(C)C)c1O
7. CC(=O)Oc1cc(Cl)c(C)c2c1[C@H]1CC[C@]3(C)[C@@H](OC(C)=O)CC[C@H]3[C@@H]1CC2
8. COC(=O)/C=C(/C=C1/C(C#N)=C(N)N(c2ccc(Cl)cc2)C1(C)/C(=C/C(=O)OC)C(=O)OC)C(=O)OC (stereo not drawn)

> 100 µM
> 100 µM
0.108 µM
0.107 µM
> 100 µM
> 100 µM
> 100 µM
> 100 µM

Could I get TGI for every one of these entries?
1. Nc1nc(N(Cc2ccccc2)c2ccccc2)c2cn[nH]c2n1
2. Cc1ccc(S(=O)(=O)c2ccsc2NC(=O)C(F)(F)F)cc1
3. CC1(C)C2CCC(CN)(C2)C1N (stereo not drawn)
4. CC1(C)OC2=C(CC1Br)C(=O)C(=O)c1ccccc12 (stereo not drawn)
5. CC/C=C\C[C@@H](O)C/C=C1/C(=O)C=C[C@H]1C/C=C\CCCC(=O)OC
6. COc1ccc(C(=O)C#Cc2cnc(OC)nc2OC)cc1

1. > 100 µM
2. > 100 µM
3. > 100 µM
4. 3.05 µM
5. 12.3 µM
6. 4.86 µM

Data point: COc1ccccc1NC(=S)Nc1cc(C)cc(C)n1 ; TGI = > 100 µM
